B1: Transitional endoplasmic reticulum ATPase, residues 26 to 106; numbered along this chain, P55072 (parent)
chain: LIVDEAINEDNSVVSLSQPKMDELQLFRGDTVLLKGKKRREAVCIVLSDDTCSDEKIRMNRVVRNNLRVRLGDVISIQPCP

- Variants of: B1
- test-summary: abundance fitness (aPCA) (normalised: wild type 0, dead -1); higher = more abundant; growth selection in yeast, the domain comes from the species named
- experimental-conditions: Homo sapiens
endpoint: abundance fitness

The cases that follow already have their abundance fitness on record.
>>> result("I57M")
-0.198
>>> result("S76C")
-0.015
>>> result("N60G")
-0.065

Consider the variant R58K and give its measured abundance fitness.
-0.013

Ok, now S15Y
0
